tested on: NCI-H522 lung; experiment: NCI tumour cell line growth inhibition, 48 h
Measurement type: TGI

INSERT INTO assay_data (compound, reading) VALUES
  ('CN(C)C(Cc1cnc[nH]1)C(=O)N1CCCC1C(N)=O (stereo unspecified)', '> 100 µM'),
  ('COC(=O)CCC(=O)C(=O)OC', '30500 µM'),
  ('O=C(Nc1c(O)[nH]c(=S)[nH]c1=O)c1ccccc1F', '> 100 µM'),
  ('OCC1OC(n2nc(-c3ccccc3)nc2-c2cnccn2)C(O)C(O)C1O (stereo unspecified)', '> 100 µM'),
  ('Clc1ccc(CSC(Cn2ccnc2)c2ccc(Cl)cc2Cl)cc1 (stereo unspecified)', '2.48 µM'),
  ('Cc1cccc(C(C)C)c1NC(=O)C(=O)CC(=O)c1sc(Nc2ccccc2Cl)nc1C', '> 100 µM');
